biological target: OsD14 (Oryza sativa subsp. japonica, UniProt Q10QA5); construct: made in house; host or cells: E. coli BL21 (DE3); assay: YLG (Yoshimulactone Green) competitive hydrolysis assay; assay type: biochemical, rice; settings: with SE (n=3); read-out: IC50, competitive inhibition of OsD14 mediated YLG hydrolysis
Sequence (Q10QA5 whole entry): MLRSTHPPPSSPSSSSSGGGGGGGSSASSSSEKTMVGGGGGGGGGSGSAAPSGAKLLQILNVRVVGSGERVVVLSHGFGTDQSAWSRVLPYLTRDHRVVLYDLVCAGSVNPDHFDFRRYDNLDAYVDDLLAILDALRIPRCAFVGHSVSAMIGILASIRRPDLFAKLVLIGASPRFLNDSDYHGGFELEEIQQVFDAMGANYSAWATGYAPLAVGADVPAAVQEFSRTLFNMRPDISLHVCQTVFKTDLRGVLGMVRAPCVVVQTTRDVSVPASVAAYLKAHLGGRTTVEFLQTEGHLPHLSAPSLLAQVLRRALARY
I'd be grateful if you could share measured pIC50 for these entries.
Entry type: numeric. Quantity: pIC50, the -log10 of concentration in molar units.

Field pIC50 (entry COC(=O)/C(=C/OC1C=C(C)C(=O)O1)c1ccc([N+](=O)[O-])cc1 (racemic) ) reads 5.62

Item: CC1=C[C@H](O/C=C2/C(=O)O[C@@H]3c4ccccc4C[C@H]23)OC1=O [GR24, reference compound] | pIC50: 5.25

###

target: OsD14 (Oryza sativa subsp. japonica); construct: made in house; host or cells: E. coli BL21 (DE3); experiment: YLG (Yoshimulactone Green) competitive hydrolysis assay; assay type: biochemical, rice
measure: pIC50
Give only the number. pIC50 is defined as minus log10 of concentration in molar units.

The molecule listed as COC(=O)/C(=C/OC1C=C(C)C(=O)O1)c1ccc(Cl)cc1 (centres unmarked) shows pIC50 equal to 5.35

pIC50 in this record for COC(=O)/C(=C/OC1C=C(C)C(=O)O1)c1ccccc1 (racemic) : 4.99

###

Can you tell me pKd for the items I'm about to list?
Biological target: ShHTL7 (Striga hermonthica)
Sequence (A0A0M3PNA2 1-271): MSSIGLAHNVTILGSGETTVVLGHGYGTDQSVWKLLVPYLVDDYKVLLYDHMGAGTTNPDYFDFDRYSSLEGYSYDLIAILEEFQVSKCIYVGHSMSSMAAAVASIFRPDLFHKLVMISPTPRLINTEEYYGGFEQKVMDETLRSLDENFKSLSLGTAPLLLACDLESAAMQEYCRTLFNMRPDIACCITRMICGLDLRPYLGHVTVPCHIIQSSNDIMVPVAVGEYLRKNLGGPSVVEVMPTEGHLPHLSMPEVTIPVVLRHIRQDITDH
Hey, just a heads up that pKd is the negative log base 10 of the concentration in molar.

# molecule COC(=O)/C(=C/OC1C=C(C)C(=O)O1)c1ccccc1 (racemic) [MP3] ; its pKd = 5.00

molecule CC1=C[C@H](O/C=C2/C(=O)O[C@@H]3c4ccccc4C[C@H]23)OC1=O [GR24, reference compound] , pKd observed: 6.36

For reference, reported pKd for COC(=O)/C(=C/OC1C=C(C)C(=O)O1)c1ccc([N+](=O)[O-])cc1 (racemic) [MP1] stands at 6.14

The measured pKd associated with COC(=O)/C(=C/OC1C=C(C)C(=O)O1)c1ccc(Cl)cc1 (stereo not shown) [MP7] reads 5.94

###

assay: Chemical stability of MPs in aqueous solution, monitored by HPLC; type: physicochemical; settings: aqueous solution pH 6.8, 21° C., monitored at 24 h intervals up to 3 weeks
measure: Stability in comparison to GR24

INSERT INTO measurements (compound, data_value) VALUES
  ('COC(=O)/C(=C/OC1C=C(C)C(=O)O1)c1ccccc1 (racemic)', 'more stable than GR24'),
  ('COC(=O)/C(=C/OC1C=C(C)C(=O)O1)c1ccc(Cl)cc1 (stereo not shown)', 'more stable than GR24');

These data points were gathered from patent US11903386B2.
